- method: organic solvent solubility
- setup_conditions: n-octanol, organic solvent or mixture
measured_endpoint: solubility

Query: I have this compound here, CCCCCCCCCCCCCCCC(=O)NCC(C)O (stereo not shown) [Example 3, N-(2-hydroxypropyl)-palmitamide] , and I need its recorded solubility.
Result: > 10000 µg/mL

* * *

- method: physchem
- setup_conditions: dmso, organic solvent or mixture
measured_endpoint: solubility

Query: If you can, please state the reported solubility value of C[C@H](CCC(=O)NCCO)[C@H]1CC[C@H]2[C@@H]3CC[C@@H]4C[C@H](O)CC[C@]4(C)[C@H]3C[C@H](O)[C@]12C [Example 12, N-(2-hydroxyethyl)-desoxycholamide] .
Result: > 10 mg/mL
